assayed.target: PDZ-domain of the protein AF6 (Homo sapiens, UniProt P55196)
Construct: The ubiquitarily 15N marked PDZ-domains of the proteins AF6; made in house
Sequence (P55196 1007-1093 limits assumed): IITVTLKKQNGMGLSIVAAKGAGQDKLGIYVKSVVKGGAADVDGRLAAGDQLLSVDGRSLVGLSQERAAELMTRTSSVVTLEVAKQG
experimental.details: 15N-HSQC NMR binding assay (chemical shift comparison with and without test ligand)
assay.conditions: 8 to 10-fold molar excess of test ligand, 50 μM protein
measurement.kind: binding to the PDZ-domain of the protein AF6 (binding / non-binding)

O=C1NC(=NCCCc2ccccc2)SC1=Cc1ccc(C(F)(F)F)cc1 = non-binding
CN(C)CCN=C1NC(=O)C(=Cc2ccc(C(F)(F)F)cc2)S1 = non-binding

Source of measurements: patent US20090204336A1
